System: IGROV-1
Test: NCI tumour cell line growth inhibition, 48 h
Activity calls are given as the source filed them. Rule as the data show it: active = GI50 up to about 1.1 µM and inactive = higher.
Readings of GI50 for the listed molecules

molecule	GI50
C[C@]12CCCC(=O)C1C[C@H](C(=O)O)CC2 (some centres not stated)	> 100 µM (inactive)
CSC1(C)CC2C(CC1N1CCOCC1)C2(C)C (configuration not stated)	> 100 µM (inactive)
O=C(NN1C(=O)C(Cl)C1c1ccccc1O)c1ccccc1O (configuration not stated)	30.6 µM (inactive)

Look at this molecule and give its reported GI50. Cc1c(O)c(OC2OC(CO)C(O)C(O)C2O)cc2c1CC[C@@H]1C2(C)C(=O)C[C@]2(C)[C@@H]([C@@](C)(O)C(=O)CCC(C)(C)O)[C@H](O)C[C@@]12C (some centres not stated)
> 100 µM (inactive)

Next molecule: O=C1NC(=O)/C(=C/c2ccc(S(=O)(=O)N/N=C/c3ccc(Cl)cc3)cc2)N1
92.9 µM (inactive)

Next molecule: CCOC(=O)c1ccc(-c2ccc(Cl)cc2)[nH]1
> 10 µM (inactive)

Next molecule: Cc1cc(C=O)c2c(=O)c3c(O)ccc(/C=C/C(C)C)c3oc2c1
52.4 µM (inactive)

Next molecule: CCOC(=O)c1cc(C2(OC)CCN(Cc3ccccc3)C2=O)c(-c2cc(C)no2)[nH]1 (configuration not stated)
> 100 µM (inactive)

Next molecule: Cc1c2ccccc2c(C2C3C(=O)N(c4cccc5ccccc45)C(=O)C3ON2Cc2ccc(CC(N)=O)cc2)c2ccccc12 (configuration not stated)
17.7 µM (inactive)

Next molecule: S=c1sc2c(s1)SCc1cccc(n1)CSc1sc(=S)sc1SCc1cccc(n1)CS2
> 100 µM (inactive)

Next molecule: COc1ccc(-c2cc(O)c3ccc(C)nc3n2)cc1
43.2 µM (inactive)

Next molecule: COc1ccc(C2Cc3cc(OC)c(OC)c(OC)c3C2=O)cc1 (configuration not stated)
> 100 µM (inactive)
